# System: P-gp at the BBB
# PROTOCOL_DESCRIPTION: in vivo
# SETUP_CONDITIONS: Wistar Unilever, rat
READOUT: ED50 at 2 h

QUERY_SMILES: COc1cc2c(cc1OC)CN(CCc1ccc(NC(=O)c3cc(OC)c(OC)cc3NC(=O)c3cnc4ccccc4c3)cc1)CC2
OBSERVED_VALUE: 8.4 mg/kg
